Target: T1, HLA-A*02:01 (human)
T1 construct: captured on streptavidin plates; also called peptide-receptive MHC molecules
Assay: UV peptide exchange ELISA (anti-b2m); yield grade: + >10%, ++ >20%, +++ >50, ++++ >75%
The following binders are shown together with reported peptide exchange yield values.

Examples with their reported peptide exchange yield follow.
ALDEPTTNL: 50 to 75%
TLLHFLAEL: > 75%
FVYGEPREL: 50 to 75%
FLDVKELML: > 75%
VLDVSFNRL: 50 to 75%

Ask | Would you kindly share the measured peptide exchange yield for STLHLVLRL ?
Reply | 50 to 75%

Ask | // query peptide exchange yield value for entry SLIDRTIKM
Reply | 50 to 75%

Ask | Return reported peptide exchange yield; argument: FLPRKFPSL
Reply | > 75%

Ask | Which peptide exchange yield is listed for FLNEDISKL ?
Reply | 50 to 75%

Ask | Sample FLPAGIVAV — what was its peptide exchange yield?
Reply | > 75%

Ask | I'd like to know its peptide exchange yield. The binder in question is KLFPSPLQTL
Reply | > 75%

Ask | Looking for the measured peptide exchange yield of TILATVPLV , can you help?
Reply | > 75%

Ask | For the binder IIDDVMKEL , what peptide exchange yield is on record?
Reply | 20 to 50%
